- System: NCI-H2087
- Run Description: relative viability (nuclei count vs DMSO), 5 days (fraction); higher = more cells survive
- Measurement Setup: first compound 0.253 µM
Values of relative viability strictly less than 0.5 map to 1, and values of at least 0.5 map to -1.

Compound: O=c1cc(-c2cccc3c2Sc2ccccc2S3)oc(N2CCOCC2)c1 + CCNC(=O)c1noc(-c2cc(C(C)C)c(O)cc2O)c1-c1ccc(CN2CCOCC2)cc1 [Luminespib] (partner 0.01 µM)
Group: 1

Compound: O=c1cc(-c2cccc3c2Sc2ccccc2S3)oc(N2CCOCC2)c1 + C[C@]1(O)C[C@@H](c2nc(-c3ccc4ccc(-c5ccccc5)nc4c3)c3c(N)nccn32)C1 [Linsitinib] (partner 1 µM)
Group: -1

Compound: COc1nc(C)cnc1NS(=O)(=O)c1cccnc1-c1ccc(-c2nnco2)cc1 [Zibotentan] + Nc1nc2[nH]cc(CCc3ccc(C(=O)N[C@@H](CCC(=O)O)C(=O)O)cc3)c2c(=O)[nH]1 [Pemetrexed] (partner 0.2 µM)
Group: -1

Compound: O=c1cc(-c2cccc3c2Sc2ccccc2S3)oc(N2CCOCC2)c1 + Nc1ncn([C@H]2C[C@H](O)[C@@H](CO)O2)c(=O)n1 [Decitabine] (partner 2 µM)
Group: 1

Compound: COc1nc(C)cnc1NS(=O)(=O)c1cccnc1-c1ccc(-c2nnco2)cc1 [Zibotentan] + CCNC(=O)c1noc(-c2cc(C(C)C)c(O)cc2O)c1-c1ccc(CN2CCOCC2)cc1 [Luminespib] (partner 0.01 µM)
Group: 1
